system: Escherichia coli TOP10; assay: shrunken log2 fold change of peptide-encoding DNA abundance (4.5 h post-induction vs induction); higher = less antimicrobial activity (less host growth inhibition); conditions: time post-induction: 4.5 h; library: site-saturation at positions 5, 18, 19, 20;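 also: peptides expressed intracellularly from a pBAD plasmid library in pooled LB shake-flask culture, induced with 0.3% L-arabinose, DNA abundance read by NGS, three biological replicates, DESeq2 with apeglm shrinkage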
readout: shrunken log2 fold change

Query: shrunken log2 fold change; subject: RRIRKRPPRLPRPRPRPHICPRP
0.00561

Quick one: RRIRDRPPRLPRPRPRPPGGPRP
1.07

Moving on to RRIRWRPPRLPRPRPRPCGNPRP
0.0696

Thanks! And RRIRNRPPRLPRPRPRPVKKPRP ?
-0.0236

Another sequence: RRIRLRPPRLPRPRPRPLDNPRP
-0.293

Next sequence up: RRIRARPPRLPRPRPRPSSHPRP
-0.471

What about this sequence? RRIRDRPPRLPRPRPRPWQLPRP
0.0822

Try this sequence next: RRIRQRPPRLPRPRPRPETKPRP
0.0652

Same question for RRIRCRPPRLPRPRPRPPWAPRP please.
0.317

One more sequence: RRIRQRPPRLPRPRPRPYMAPRP
-0.274

// repeat for RRIRFRPPRLPRPRPRPWEDPRP and report
0.0682

Queued: RRIRHRPPRLPRPRPRPFFQPRP
-0.202

Similarly, RRIRYRPPRLPRPRPRPMHQPRP ?
-0.0734

Also RRIRDRPPRLPRPRPRPSCEPRP , if possible.
0.042

# repeat for RRIRFRPPRLPRPRPRPCVSPRP
-0.0323

What about RRIRCRPPRLPRPRPRPCEEPRP ?
0.207

For RRIRIRPPRLPRPRPRPCHEPRP then?
-0.0297

Try this sequence too: RRIRRRPPRLPRPRPRPCPQPRP
0.0779

Next: RRIRHRPPRLPRPRPRPCLYPRP
-0.057

Try RRIRERPPRLPRPRPRPGDQPRP next.
-0.0675
